Target: Ba/F3 FGFR2-N549K (Homo sapiens, UniProt P21802, N549K, cells depend on it)
Construct: fused on or other part: Q9H694 (Protein bicaudal C homolog 1)
Sequence (P21802 whole entry N549K, the tested form may be a part): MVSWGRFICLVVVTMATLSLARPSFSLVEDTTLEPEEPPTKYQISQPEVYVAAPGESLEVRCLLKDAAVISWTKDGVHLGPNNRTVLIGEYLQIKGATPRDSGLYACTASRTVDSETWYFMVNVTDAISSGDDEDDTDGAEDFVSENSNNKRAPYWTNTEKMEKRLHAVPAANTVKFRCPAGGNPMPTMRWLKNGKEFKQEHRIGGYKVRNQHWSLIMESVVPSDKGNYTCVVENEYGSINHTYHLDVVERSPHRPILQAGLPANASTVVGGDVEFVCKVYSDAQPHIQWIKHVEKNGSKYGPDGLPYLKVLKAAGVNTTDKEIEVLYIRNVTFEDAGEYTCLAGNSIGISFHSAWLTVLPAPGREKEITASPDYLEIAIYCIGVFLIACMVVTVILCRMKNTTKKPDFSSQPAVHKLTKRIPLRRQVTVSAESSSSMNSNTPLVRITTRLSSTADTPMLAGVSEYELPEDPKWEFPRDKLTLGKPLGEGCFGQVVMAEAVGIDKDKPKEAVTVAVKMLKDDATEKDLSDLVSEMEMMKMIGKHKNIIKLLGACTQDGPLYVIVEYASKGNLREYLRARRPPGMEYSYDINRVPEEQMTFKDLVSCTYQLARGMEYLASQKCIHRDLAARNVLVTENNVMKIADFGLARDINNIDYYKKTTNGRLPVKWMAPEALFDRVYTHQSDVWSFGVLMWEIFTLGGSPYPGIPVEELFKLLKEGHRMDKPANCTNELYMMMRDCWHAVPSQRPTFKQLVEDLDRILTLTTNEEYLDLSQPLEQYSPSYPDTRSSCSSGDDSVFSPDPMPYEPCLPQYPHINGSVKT
Experiment: 2D cell proliferation assay, Ba/F3 FGFR2-N549K
Assay type: cell-based, mouse
Details: 96 hours, CTG, read-out: Cell Line, IC50 Ba/F3 FGFR2-N549K
Here, each record is paired with measured GI50 data.
Endpoint label: GI50

- Given smiles: "C=CC(=O)N1CCC2(CC=C(c3c(-c4ncc(C#N)cn4)c4c(N)ncnc4n3C)CC2)CC1"
  Measured result: "1 to 10 nM"
- Given smiles: "C=CC(=O)N1CCC2(CC=C(c3c(-c4ccc(F)cc4)c4c(N)ncnc4n3C)CC2)CC1"
  Measured result: "1 to 10 nM"
- Given smiles: "C=CC(=O)N1CCC2(CC=C(c3c(-c4ccc(OC5CCCC5)nc4)c4c(N)ncnc4n3C)CC2)CC1"
  Measured result: "1 to 10 nM"

----------
Tested on: KATO III
Assay: 2D cell proliferation assay, KATO III
Format: cell-based
Conditions: Homo sapiens, 96 hours, CTG, read-out: Cell Line, IC50 KATO III
Endpoint label: IC50

- Compound: "C=CC(=O)N1CCC2(CC=C(c3c(-c4ccc(OC(F)F)nc4)c4c(N)ncnc4n3C)CC2)CC1 [Example 29]"
  Measured result: "1 to 10 nM"
- Compound: "C=CC(=O)N1CCC2(CC=C(c3[nH]c4ncnc(N)c4c3-c3ncccn3)CC2)CC1 [Example 58]"
  Measured result: "10 to 30 nM"
- Compound: "C=CC(=O)N1CCC2(CC=C(c3c(-c4ccc(Oc5ncccn5)cc4)c4c(N)ncnc4n3C)CC2)CC1 [Example 4]"
  Measured result: "10 to 30 nM"

----------
System: KATO III
Experiment: 2D cell proliferation assay, KATO III
Format: cell-based
Settings: Homo sapiens, 96 hours, CTG, read-out: Cell Line, IC50 KATO III
pIC50: −log10 of the molar value.
Here, each record is paired with measured pIC50 data.

- Given smiles: "C=CC(=O)N1CCC2(CC=C(c3c(-c4cccc(OC)c4)c4c(N)ncnc4n3C)CC2)CC1"
  pIC50: "7.52 to 8.00"
- Given smiles: "C=CC(=O)N1CCC2(CC=C(c3c(-c4cnc(OC)c(F)c4)c4c(N)ncnc4n3C)CC2)CC1"
  pIC50: "8.00 to 9.00"
- Given smiles: "C=CC(=O)N1CCC2(CC=C(c3c(-c4ccc(OC5CCCC5)nc4)c4c(N)ncnc4n3C)CC2)CC1"
  pIC50: "7.52 to 8.00"
- Given smiles: "C=CC(=O)N1CCC2(CC=C(c3c(C#N)c4c(N)ncnc4n3C)CC2)CC1"
  pIC50: "8.00 to 9.00"

----------
Molecular target: Ba/F3 FGFR2-V564F (Homo sapiens, UniProt P21802, V564F, cells depend on it)
Construct: fused on or other part: Q9H694 (Protein bicaudal C homolog 1)
Sequence (P21802 whole entry V564F, the tested form may be a part): as the sequence (P21802 whole entry N549K, the tested form may be a part) above, with K549N, V564F counted along it
Assay: 2D cell proliferation assay, Ba/F3 FGFR2-V564F
Type: cell-based, mouse
Settings: 96 hours, CTG, read-out: Cell Line, IC50 Ba/F3 FGFR2-V564F
Here, each record is paired with measured GI50 data.

- Compound: "C=CC(=O)N1CCC2(CC=C(c3c(-c4ccc(Oc5nccc(C)n5)c(F)c4)c4c(N)ncnc4n3C)CC2)CC1 [Example 62]"
  GI50: "≤ 1 nM"
- Compound: "C=CC(=O)N1CCC2(CC=C(c3c(-c4ncc(F)cn4)c4c(N)ncnc4n3C)CC2)CC1 [Example 44]"
  GI50: "≤ 1 nM"
- Compound: "C=CC(=O)N1CCC2(CC=C(c3c(-c4ncc(C5CC5)cn4)c4c(N)ncnc4n3C)CC2)CC1 [Example 45]"
  GI50: "1 to 10 nM"
- Compound: "C=CC(=O)N1CCC2(CC=C(c3c(-c4ncc(C(F)(F)F)cn4)c4c(N)ncnc4n3C)CC2)CC1 [Example 42]"
  GI50: "1 to 10 nM"
- Compound: "C=CC(=O)N1CCC2(CC=C(c3c(-c4ncc(OC)cn4)c4c(N)ncnc4n3C)CC2)CC1 [Example 43]"
  GI50: "≤ 1 nM"
- Compound: "C=CC(=O)N1CCC2(CC=C(c3c(-c4ccc(OC)nc4)c4c(N)ncnc4n3C)CC2)CC1C (stereo not drawn) [Example 39]"
  GI50: "10 to 30 nM"
- Compound: "C=CC(=O)N1CCC2(CC=C(c3c(-c4cnc(OC5CC5)c(F)c4)c4c(N)ncnc4n3C)CC2)CC1 [Example 23]"
  GI50: "10 to 30 nM"
- Compound: "C=CC(=O)N1CCC2(CC=C(c3c(-c4ccc(OC5CC5)cc4)c4c(N)ncnc4n3C)CC2)CC1 [Example 18]"
  GI50: "1 to 10 nM"
- Compound: "C=CC(=O)N1CCC2(CC=C(c3c(-c4ncc(C#N)cn4)c4c(N)ncnc4n3C)CC2)CC1 [Example 51]"
  GI50: "1 to 10 nM"
- Compound: "C=CC(=O)N1CCC2(CC=C(c3c(-c4ncccn4)c4c(N)ncnc4n3C)CC2)CC1 [Example 33]"
  GI50: "≤ 1 nM"
- Compound: "C=CC(=O)N1CCC2(CC=C(c3c(-c4cnccn4)c4c(N)ncnc4n3C)CC2)CC1 [Example 59]"
  GI50: "≤ 1 nM"
- Compound: "C=CC(=O)N1CCC2(CC=C(c3c(C#N)c4c(N)ncnc4n3C)CC2)CC1 [Example 57]"
  GI50: "> 100 nM"
